- System: HT-29
- Procedure text: Cytotoxicity against human HT-29 cells by SRB staining-based fluorescence cytometry
- Assay type: functional, cell-based
- Condition: Homo sapiens, HT-29; read-out: IC50
pIC50: −log10 of the molar value.
Quick rule: pIC50 of at least 5 means 1, below that means -1.

Req: Does CC[C@@]1(O)C(=O)OCc2c1cc1n(c2=O)Cc2cc3ccccc3nc2-1 [CAMPTOTHECIN] have a reported pIC50 of at least 5?
Resp: 1

Req: Does COc1ccc(/C=C/Cc2ccc(O)c(OC)c2OC)cc1O [CANDENATENIN A] have a reported pIC50 of at least 5?
Resp: -1

Req: Does O=C1C=C[C@](O)(C/C=C/c2ccccc2)CC1 [(1'R)-CANDENATENIN B] have a reported pIC50 of at least 5?
Resp: -1

Req: Does CO[C@H]1CC(=O)CC[C@@]1(O)C/C=C/c1ccccc1 have a reported pIC50 of at least 5?
Resp: -1

Req: Does COc1cc(O)c2c(c1)O[C@H](c1ccccc1)[C@@H](O)C2=O have a reported pIC50 of at least 5?
Resp: -1

Req: Does COc1ccccc1/C=C/C[C@@]1(O)C=CC(=O)CC1 have a reported pIC50 of at least 5?
Resp: -1
